Target Under Test: Sphingosine 1-phosphate receptor 3 (Homo sapiens, UniProt Q99500)
Sequence (Q99500 whole entry): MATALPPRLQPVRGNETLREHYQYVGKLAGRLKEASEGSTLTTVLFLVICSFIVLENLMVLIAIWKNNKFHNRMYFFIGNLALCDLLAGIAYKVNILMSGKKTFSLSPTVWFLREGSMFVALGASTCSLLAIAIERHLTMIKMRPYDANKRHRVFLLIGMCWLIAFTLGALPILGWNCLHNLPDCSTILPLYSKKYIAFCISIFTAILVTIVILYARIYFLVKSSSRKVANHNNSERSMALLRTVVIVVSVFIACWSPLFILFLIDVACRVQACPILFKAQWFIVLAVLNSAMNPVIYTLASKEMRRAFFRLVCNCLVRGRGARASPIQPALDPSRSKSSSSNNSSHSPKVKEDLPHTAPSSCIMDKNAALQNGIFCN
Experiment Summary: Displacement of [33P]sphingosine-1-phosphate from human S1P3 receptor
Let's look at some molecules and their measured IC50.
Give the value in nM but do not write nM after it.

>  <Substance Smiles>
C[C@](N)(COP(=O)(O)O)C(=O)Nc1ccc(OCCc2ccc(-c3cccs3)cc2)cc1

>  <Assay Metric>
IC50

>  <Reading>
3750

$$$$
>  <Substance Smiles>
C[C@](N)(COP(=O)(O)O)c1nc(-c2ccc(OCCc3ccc(-c4ccccc4)cc3)cc2)c[nH]1

>  <Assay Metric>
IC50

>  <Reading>
210

$$$$
>  <Substance Smiles>
COc1ccc(CCCCOc2ccc(NC(=O)[C@@](C)(N)COP(=O)(O)O)cc2)cc1

>  <Assay Metric>
IC50

>  <Reading>
100

$$$$
>  <Substance Smiles>
C[C@](N)(COP(=O)(O)O)c1nc(-c2ccc(OCc3ccc(-c4ccccc4)cc3)cc2)c[nH]1

>  <Assay Metric>
IC50

>  <Reading>
20

$$$$
>  <Substance Smiles>
C[C@](N)(COP(=O)(O)O)C(=O)Nc1ccc(OCCc2cccc3ccccc23)cc1

>  <Assay Metric>
IC50

>  <Reading>
2500

$$$$
>  <Substance Smiles>
C[C@](N)(COP(=O)(O)O)C(=O)Nc1ccc(OCCCCc2cccs2)cc1

>  <Assay Metric>
IC50

>  <Reading>
120

$$$$
>  <Substance Smiles>
C[C@](N)(COP(=O)(O)O)C(=O)Nc1ccc(OCCCc2ccc(-c3ccccc3)cc2)cc1

>  <Assay Metric>
IC50

>  <Reading>
27.1

$$$$
>  <Substance Smiles>
C[C@](N)(COP(=O)(O)O)c1nc(-c2ccc(OCCCCCc3ccccc3)cc2)c[nH]1

>  <Assay Metric>
IC50

>  <Reading>
6

$$$$

Q. For C[C@](N)(COP(=O)(O)O)C(=O)Nc1ccc(OCCCCC2CCCCC2)cc1 , what is its reported IC50?
A. 31.3

Q. For C[C@](N)(COP(=O)(O)O)C(=O)Nc1ccc(OCc2ccc(-c3ccccc3)cc2)cc1 , what is its reported IC50?
A. 21.1
